Target: human IL-17AA (Homo sapiens, UniProt Q16552)
Construct: host or cells: HEK (human embryonic kidney) cells
Sequence (Q16552 24-155): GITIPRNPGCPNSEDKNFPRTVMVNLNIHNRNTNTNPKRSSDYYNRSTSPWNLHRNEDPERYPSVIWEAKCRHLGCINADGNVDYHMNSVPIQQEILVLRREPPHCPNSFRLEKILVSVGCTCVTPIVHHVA
Experiment: IL-8 release assay in human epithelial keratinocytes adult (HEKa)
Assay type: cell-based
Conditions: HEKa cells, 3 ng/mL HEK-human IL-17AA + 10 ng/mL human TNFalpha; read-out: Rel EC50 IL-8 release assay
pEC50: −log10 of the molar value.
Catalogue of compounds with associated pEC50

Examples with answers:
compound=Cc1n[nH]c(CO)c1-c1ccc(NC(=O)[C@@H](NC(=O)c2ccnn2C)C2CCCCCC2)cc1 endpoint_value="> 7.00"
compound=Cc1n[nH]c(C)c1-c1ccc(NC(=O)[C@@H](NC(=O)c2cnc3ncccn23)C2CCCCC2)cc1 endpoint_value="< 6.00"

I'd like to know its pEC50. The compound in question is Cc1ncn(C)c1-c1ccc(NC(=O)[C@@H](NC(=O)c2ccnn2C)C(c2ccccc2)c2ccccc2)cc1
6.00 to 7.00

Next record, please: Cc1n[nH]c(C)c1-c1ccc(NC(=O)[C@@H](NC(=O)c2ccn(C)n2)C(C2CC2)C2CC2)cc1
< 6.00

Next record, please: Cc1n[nH]c(C)c1-c1ccc(NC(=O)[C@@H](NC(=O)c2ccnn2C(C)C)C2CCC(F)(F)CC2)cc1
> 7.00

Next record, please: Cc1n[nH]c(C)c1-c1ccc(NC(=O)[C@@H](NC(=O)c2ccnn2CC(C)(F)F)C(C2CC2)C2CC2)cc1
> 7.00

Next record, please: CC(C)n1nccc1C(=O)N[C@H](C(=O)Nc1ccc(-c2nncn2C)cc1)C1CCCCCC1
6.00 to 7.00

Next record, please: Cc1n[nH]c(C)c1-c1ccc(NC(=O)[C@@H](NC(=O)c2ccnn2[C@H](C)CO)C(C)C2CCC2)cc1 (single isomer, unassigned) [Example 165]
6.00 to 7.00

Next record, please: CCCn1nccc1C(=O)N[C@H](C(=O)Nc1ccc(-c2c(C)n[nH]c2C)cc1)C(C1CC1)C1CC1
> 7.00

Next record, please: Cc1n[nH]c(C)c1-c1ccc(NC(=O)[C@@H](NC(=O)c2ccnn2C(C)CF)C(C2CC2)C2CC2)cc1 (stereo partly shown)
> 7.00
